Origin of measurements: paper PMC4830356

Tested on: human KOR
procedure details: Bias analysis by fitting to the operational model
test conditions: antilog of ΔΔLogR(G−ERK), relative to U69,593
reported property: bias factor (10^ΔΔLogR) G/ERK

See these solved cases before continuing.
[[record]]
input_smiles = "FC(F)(F)c1ccc(Cl)c(CSc2nnc(-c3ccccn3)n2Cc2cccs2)c1"
recorded_value = 419

[[record]]
input_smiles = "FC(F)(F)c1ccc(Cl)c(CSc2nnc(-c3ccccn3)n2Cc2cccnc2)c1"
recorded_value = 9

[[record]]
input_smiles = "Brc1ccc(CSc2nnc(-c3ccccn3)n2Cc2cccs2)cc1"
recorded_value = 46

[[record]]
input_smiles = "Brc1ccc(CSc2nnc(-c3ccccn3)n2Cc2ccco2)cc1"
recorded_value = 47


Read the entry `Ic1ccc(CSc2nnc(-c3ccccn3)n2Cc2cccnc2)cc1` and write its reported bias factor (10^ΔΔLogR) G/ERK.
16

Read the entry `Ic1ccc(CSc2nnc(-c3ccccn3)n2Cc2cccs2)cc1` and write its reported bias factor (10^ΔΔLogR) G/ERK.
304

Read the entry `FC(F)(F)c1ccc(Cl)c(CSc2nnc(-c3ccccn3)n2Cc2ccco2)c1` and write its reported bias factor (10^ΔΔLogR) G/ERK.
93

Read the entry `Brc1ccc(CSc2nnc(-c3ccccn3)n2Cc2cccnc2)cc1` and write its reported bias factor (10^ΔΔLogR) G/ERK.
14

Read the entry `Ic1ccc(CSc2nnc(-c3ccccn3)n2Cc2ccco2)cc1` and write its reported bias factor (10^ΔΔLogR) G/ERK.
88
